Listed here: items and their measured melting point.

smi: COc1cc(C(=O)CBr)cc(OC)c1OC
melting point: 61 to 62 °C

Quick one: melting point of O=C(Nc1cccc(-n2ccnc2)c1)c1csc(-c2ccccc2)n1 ?
131 to 134 °C

Quick one: melting point of COc1cc2c3c(Br)cc(OC)c(OC)c3n(S(C)(=O)=O)c2cc1OC ?
178 to 179 °C

Quick one: melting point of CCc1cc(C(=O)c2ccccc2Cl)c(-n2c(C)nnc2CNC(=O)c2c[nH]c3ccccc23)s1 ?
140 to 145 °C

Quick one: melting point of Cc1ccc(/C=C/[C@@]2(O)C[C@H](O)CC(=O)O2)cc1 ?
126 to 127 °C

* * *

Listed here: items and their measured melting point.

smi: CN1C=CCC(C(=O)NCCc2ccc(OC(=O)C(C)(C)C)c(OC(=O)C(C)(C)C)c2)=C1
observed measurement: 45 to 48 °C

Quick one: melting point of CCOC(=O)c1cc2n(C)c3ccc(C)cc3c(=O)n2n1 ?
250 to 252 °C

Quick one: melting point of C=CCn1c(C)nc2c3c(c(C(=O)OCC)cc21)C(=O)CC1(Cc2ccccc2C1)N3 ?
183 to 184 °C

Quick one: melting point of CCCN(CCC)C(=O)COc1nc(-c2ccccc2)nc(C)c1Br ?
107 to 108 °C

Quick one: melting point of CN1OCC(=O)N(C(c2ccccc2)c2ccccc2)C1=S ?
152 to 154 °C

Quick one: melting point of Oc1cccnc1Oc1cccc(Br)c1 ?
107 to 108 °C

Quick one: melting point of CC(C)(C)Nc1nc(Cl)nc(Cl)n1 ?
129 to 130 °C

Quick one: melting point of O=c1c2cc(Cl)ccc2nc2n1CCN2Cc1ccccc1Cl ?
173 to 174 °C

Quick one: melting point of Oc1c(I)cc(-c2c3ccccc3cc3sc4ccccc4c23)cc1I ?
213 to 214 °C

Quick one: melting point of Nc1cccc2c1CN(c1nc3c(cc1F)c(=O)c(C(=O)O)cn3C1CC1)C2 ?
> 300 °C

* * *

Listed here: items and their measured melting point.

For orientation, consider the following solved cases.
compound: CC(Oc1c(Cl)cccc1Cl)C(N)=O (single isomer, unassigned; (-))
melting point: 192 to 193 °C
--
compound: CC(C)CNc1ccccc1CS(=O)c1nc2ncccc2[nH]1 (centres undefined)
melting point: 116 °C
--
compound: CNC(=O)c1cccc(C2C(C(=O)c3ccc(OC)cc3)=C(O)C(=O)N2c2nnc(C)s2)c1 (centres undefined)
melting point: 238 °C
--
compound: CN1Cc2c(CO)ncn2-c2cccc(Cl)c2C1=O
melting point: 207 to 208 °C
--
compound: CCCCNC(=O)NS(=O)(=O)c1cccc2c1S(=O)(=O)N(C)C2
melting point: 162 to 164 °C
--
compound: CCC(CC)c1ccc(Cl)c2nc3n(c12)CCCCN3c1c(C)cc(C)cc1OC
melting point: 196 to 198 °C
--
compound: NC(=O)C(c1ccc(Cl)cc1)c1ccc(-n2ncc(=O)[nH]c2=O)cc1Cl (centres undefined)
melting point: 161 °C
--
compound: Cc1c(NC(=O)c2ccc(-c3ccc(F)cc3)cc2)ccc2cc(CN3CCN(C)CC3)cnc12
melting point: 152 to 153 °C
--
compound: COc1ccc(CN2C(=O)C(NC(=O)Nc3ccccc3)C(=O)N(CCC(C)C)c3ccccc32)cc1 (centres undefined)
melting point: 206 to 208 °C
--
compound: CCCc1nc(N2CCc3ccccc3CC2)c(C#N)c(=O)n1CC(F)(F)F
melting point: 104 to 106 °C

Quick one: melting point of CCOC(=O)COc1ccc(NC(=O)OC(C)(C)C)cc1Cl ?
119 to 120 °C

Quick one: melting point of C1=NCCN1c1ccccc1 ?
45 °C

Quick one: melting point of CC(=O)OCC(=O)C1C(C)CC2C3CC(F)C4=CC(=O)C=CC4(C)C34OC4CC21C (centres undefined) ?
154 to 162 °C

Quick one: melting point of CN(CCCCC(=O)OC[C@@H]1CC(c2ccc(-c3ccc(N4C[C@H](Cn5ccnn5)OC4=O)cc3F)cn2)=NO1)C(=O)OC(C)(C)C ?
121 °C

Quick one: melting point of CCOC(=O)C(=O)c1ccc(OCCCOc2ccc(C(C)=O)c(O)c2)cc1 ?
63 to 65 °C

Quick one: melting point of CCOC(=O)c1cnn2c(-c3cccnc3)ccnc12 ?
170 to 171 °C

* * *

value type: melting point

compound: CC(C)(C)OC(=O)NCCc1c[nH]c2ccc(CO)cc12
value type: melting point
observed measurement: 129 to 130 °C

compound: O=C(O)c1ccc(C(=O)/C=C/c2cc(-c3cccs3)ccc2N2CCCC2)cc1
value type: melting point
observed measurement: 208 to 209 °C

compound: Cc1nsc(CCCOc2c(C)cc(-c3noc(C)n3)cc2C)n1
value type: melting point
observed measurement: 67 to 71 °C

compound: Nc1ccccc1NCCCCCCCCCCCCNc1ccccc1N
value type: melting point
observed measurement: 85 to 88 °C

Quick one: melting point of CNC(=O)C(Cc1ccc(OC)cc1)NC(=O)C(CC(C)C)C(S)CC(=O)OC(C)(C)C (stereo not given) ?
133 to 137 °C

Quick one: melting point of Cc1ccccc1C(CCC(=O)O)Oc1cc(OCc2ccsc2)ccc1C(=O)NC(Cc1ccccc1)C(=O)O (stereo not given) ?
178 to 180 °C

Quick one: melting point of Cc1c(N)c([N+](=O)[O-])cc(F)c1F ?
87.2 to 88 °C

Quick one: melting point of N#Cc1cc(F)c(O)nc1O ?
135 to 140 °C

Quick one: melting point of CCOC(=O)CNS(=O)(=O)c1sccc1C=O ?
74 to 76 °C

* * *

Listed here: items and their measured melting point.

compound: O=C(O)C(CC1CCCC1)c1ccc([N+](=O)[O-])cc1 (configuration not stated)
melting point: 119 to 125 °C

compound: CC(C)(C)OC(=O)Nc1ccoc1C(N)=O
melting point: 140 to 143 °C

compound: CC(C)(C)OC(=O)N1Cc2c(Br)sc(Br)c2C1
melting point: 144 to 145 °C

compound: CC(=O)NC[C@H]1CC(c2ccc(-c3ccncc3)cc2)=NO1
melting point: 244 to 245 °C

compound: NC1(CO)CCCNC1=O (configuration not stated)
melting point: 145 °C

compound: Cc1sc(NS(=O)(=O)c2ccc(-c3ccccc3)cc2)nc1CC(=O)N1CCOCC1
melting point: 204 to 206 °C

Consider the additional compound presented here.
Quick one: melting point of NS(=O)(=O)c1ccc(-n2ncc(F)c2-c2ccccc2)cc1 ?
194 °C

* * *

Listed here: items and their measured melting point.

Quick one: melting point of CCCCCCC(Oc1ccc(NC(=O)NC(=O)c2c(Cl)cccc2Cl)cc1)c1ccccc1 (stereo not given) ?
146 to 149 °C

Quick one: melting point of CCOC(=O)Cn1c(=O)c2cc(Cl)ccc2n(Cc2ccc(Br)cc2F)c1=O ?
145 to 146 °C

Quick one: melting point of N=C(NCc1cccs1)NN=Cc1c(Cl)cccc1Cl ?
135 to 137 °C

Quick one: melting point of Clc1ccc(Cn2cc(C=Cc3cccnc3)c3cc(OCc4ccc5ccccc5n4)ccc32)cc1 ?
169 to 171 °C

Quick one: melting point of CCNC=C(C(=O)C=Cc1ccc(N(C)C)c(C)c1)C(=O)OC ?
98 to 100 °C

Quick one: melting point of COc1cc(C(=O)NCc2ccc(-c3csc(N)n3)s2)cc(OC)c1OC ?
217 °C

* * *

value type: melting point

For orientation, consider the following solved cases.
compound: CS(=O)(=O)c1nnc(-c2ccc3occ(-c4ccc(OC(F)(F)F)cc4)c3c2)o1
melting point: 196 to 197 °C
//
compound: O=C1CC(c2ccccc2)Cc2[nH]c3c(c21)CCCC3 (stereo not given)
melting point: 257 to 259 °C
//
compound: COc1ccc(CC(=O)NC(C)(C)C(O)c2ccccc2)cc1OC (stereo not given)
melting point: 123 to 124 °C
//
compound: COC(=O)c1cc(CCCCc2c(N)nc(N)nc2O)cs1
melting point: 185 to 186 °C
//
compound: O=C(c1ccccc1SSc1ccccc1C(=O)N1CCOCC1)N1CCOCC1
melting point: 103 to 110 °C

Quick one: melting point of CCCCCCCCCNC(C)C(=O)O (stereo not given) ?
264 °C

Quick one: melting point of CC(C)c1n[nH]c2c(NCc3ccccc3Br)ncnc12 ?
194 to 196 °C

Quick one: melting point of O=C(CCC(=O)N1CCC(c2ccc(Cl)cc2)CC1)c1ccc2c(c1)CCN(CC1CCCO1)CC2 (stereo not given) ?
123 to 125 °C

Quick one: melting point of Cc1cc(C)cc(N(CCCC(N)=O)Cc2ccc3nc(NCCCN4CCOCC4)n(Cc4cccc5c4ncn5C)c3c2)c1 ?
206 °C

Quick one: melting point of Cc1cc(C)cc(NC(=O)Cc2ccc(OC3(C(=O)O)CCOCC3)cc2)c1 ?
186 to 188 °C
